# System: mouse thoracic aortic rings
# Test Method Notes: Vasorelaxation of aortic rings preconstricted by high-K solution (organ bath)
# Study Conditions: aortic rings preconstricted by high-K (60 mM K+) solution, n=5, read-out: half-maximal relaxation value IC50
Property: pIC50
Would you please state pIC50, meaning minus log10 of the concentration in mol/L, as a bare number?

Lookup: Name the recorded pIC50 for CC(C)CNC(=O)[C@@H](CC(C)C)ONC(=O)c1cccc(C(=O)NO[C@H](CC(C)C)C(=O)NCC(C)C)c1 [Example 2] .
Found: 5.07

---

# Lookup of reported melting point keyed by entry

Solved entries (count: 3):
CC(C)CNC(=O)[C@@H](CC(C)C)ONC(=O)c1cccc(C(=O)NO[C@H](CC(C)C)C(=O)NCC(C)C)n1 [Example 7] : 175 to 177 °C
CC(C)CNC(=O)[C@H](CC(C)C)NC(=O)c1cccc(C(=O)N[C@@H](CC(C)C)C(=O)NCC(C)C)c1 [Example 8] : 240 to 242 °C
CC(C)C[C@@H](ONC(=O)c1cccc(C(=O)NO[C@H](CC(C)C)C(=O)OC(C)(C)C)c1)C(=O)OC(C)(C)C [Example 1] : 57 to 59 °C

Lookup: Name the recorded melting point for CC(C)CNC(=O)[C@H](CC(C)C)OC(=O)c1cccc(C(=O)O[C@@H](CC(C)C)C(=O)NCC(C)C)c1 [Example 9] .
Found: 137 to 139 °C

---

# Lookup of reported melting point keyed by entry

CC(C)CNC(=O)[C@@H](Cc1ccccc1)ONC(=O)c1cccc(C(=O)NO[C@H](Cc2ccccc2)C(=O)NCC(C)C)c1 : 145 to 148 °C
CC(C)CNC(=O)[C@@H](CC(C)C)ONC(=O)c1ccccc1 : 130 to 132 °C
CC(C)CNC(=O)[C@@H](CO)ONC(=O)c1cccc(C(=O)NO[C@H](CO)C(=O)NCC(C)C)c1 : 174 to 176 °C

Now look at this entry.
Lookup: Name the recorded melting point for `CCCCCCCCCCCCCCCCCCNC(=O)[C@@H](CC(C)C)ONC(=O)c1cccc(C(=O)NO[C@H](CC(C)C)C(=O)NCCCCCCCCCCCCCCCCCC)c1` .
Found: 88 to 90 °C
